tested-on: Chloroquine resistance transporter (Plasmodium falciparum)
Sequence (Q9N623 whole entry, looked up): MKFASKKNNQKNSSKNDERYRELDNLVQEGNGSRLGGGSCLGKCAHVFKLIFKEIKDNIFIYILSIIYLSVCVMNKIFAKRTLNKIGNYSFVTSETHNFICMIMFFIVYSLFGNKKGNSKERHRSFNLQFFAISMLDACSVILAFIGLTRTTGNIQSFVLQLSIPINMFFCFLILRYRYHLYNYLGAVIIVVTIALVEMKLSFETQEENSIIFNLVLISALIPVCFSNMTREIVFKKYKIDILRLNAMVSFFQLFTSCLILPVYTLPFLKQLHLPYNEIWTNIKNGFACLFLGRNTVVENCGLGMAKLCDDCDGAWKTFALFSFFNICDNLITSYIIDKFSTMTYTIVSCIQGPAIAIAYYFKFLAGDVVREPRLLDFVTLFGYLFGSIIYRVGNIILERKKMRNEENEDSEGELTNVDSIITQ
measurement-notes: Inhibition of chloroquine-resistant Plasmodium falciparum Dd2 CRT expressed in Xenopus laevis oocyte assessed as inhibition of [3H]chloroquine uptake measured from 1 to 2 hrs
parameter-measured: IC50
For clarity, give the value followed by its unit.

For Clc1cccc(C(Nc2ccnc3cc(Cl)ccc23)c2ccc(CN3CCNCC3)cc2)c1 (racemic) , what is its reported IC50?
10.5 µM

For "CC(C)(C)NC(=O)[C@@H]1C[C@@H]2CCCC[C@@H]2CN1C[C@@H](O)[C@H](Cc1ccccc1)NC(=O)[C@H](CC(N)=O)NC(=O)c1ccc2ccccc2n1" , what is its reported IC50?
13 µM

For Clc1ccc(C(Nc2ccnc3cc(Cl)ccc23)c2ccc(CN3CCNCC3)cc2)cc1 (racemic) , what is its reported IC50?
10.3 µM
